measurement_kind: melting point

> print(dat)
                                   compound            val
1  COc1ccnc(C(=O)N[C@H]2COC[C@H](OCc3ccccc3)[C@@H](OCc3ccccc3)[C@H](C)OC2=O)c1O [Compound 11]  144 to 146 °C
2  COc1ccnc(C(=O)N[C@H]2COC[C@H](O)[C@@H](OCC(C)C)[C@H](C)OC2=O)c1O [Compound 72]  121 to 124 °C

Just so you know, measured melting point for CC[C@@H]1OC(=O)[C@@H](NC(=O)c2nccc(OC)c2O)COC[C@H](OCC(C)C)[C@H]1OCC(C)C [Compound 21] came out at 119 to 121 °C

Just so you know, measured melting point for CCCCO[C@H]1COC[C@H](NC(=O)c2nccc(OC)c2O)C(=O)O[C@@H](C)[C@@H]1OCCC [Compound 44] came out at 110 to 112 °C

###

measurement_kind: melting point

> print(dat)
                                   compound  measurement.kind            val
1  COc1ccnc(C(=O)N[C@H]2COC[C@H](OCC(C)C)[C@@H](OCC(C)C)[C@H](C)OC2=O)c1O [Compound 1]     melting point  111 to 113 °C

Just so you know, measured melting point for C=C(C)CO[C@H]1[C@H](C)OC[C@H](NC(=O)OCc2ccccc2)C(=O)OC[C@@H]1OCC(=C)C [Compound 127] came out at 79 to 81 °C

Just so you know, measured melting point for COc1ccnc(C(=O)N[C@H]2COC[C@H](OCC(C)C)[C@@H](Oc3ccccc3)[C@H](C)OC2=O)c1O [Compound 82] came out at 117 to 119 °C

Just so you know, measured melting point for `C[C@@H]1OC(=O)[C@@H](N)COC[C@H](OCC2CC2)[C@H]1OCC1CC1.Cl` came out at 181 to 185 °C

Just so you know, measured melting point for CCCCO[C@H]1COC[C@H](NC(=O)c2nccc(OC)c2O)C(=O)O[C@@H](C)[C@@H]1OCCOC [Compound 52] came out at 75 to 77 °C

Just so you know, measured melting point for C=CCO[C@H]1[C@H](C)OC(=O)[C@@H](NC(=O)c2nccc(OC)c2O)COC[C@@H]1OCCCC [Compound 43] came out at 101 to 103 °C

Just so you know, measured melting point for `CC(C)CO[C@H]1[C@H](C)OC(=O)[C@@H](N)COC[C@@H]1Oc1ccc(F)cc1.Cl` came out at 197 to 200 °C

###

System: Puccinia triticina; synonym: Puccinia recondita f. sp. tritici
Assay: Fungicidal activity: wheat brown rust (PUCCRT), wheat seedlings
Assay type: in vivo
Details: 72 h; 100 ppm; 3 Day Curative; wheat; read-out: Disease Control PUCCRT 3DC
As shown below, each of these compounds has a reported pest or weed control at 100 ppm value.

Just so you know, measured pest or weed control at 100 ppm for `COc1ccnc(C(=O)N[C@H]2COC[C@H](OCC(C)C)[C@@H](OCC(C)C)[C@@H](COCC(C)C)OC2=O)c1OCOC(C)=O` came out at 0 to 80%

Just so you know, measured pest or weed control at 100 ppm for COc1ccnc(C(=O)N[C@H]2CO[C@@H](C)C(OCc3ccccc3)C(OCc3ccccc3)[C@H](C)OC2=O)c1OCOC(C)=O (stereo partly shown) came out at 80 to 100%

Just so you know, measured pest or weed control at 100 ppm for `COc1ccnc(C(=O)N[C@H]2COC[C@H](OCC(C)C)[C@@H](OCC(C)C)[C@H](C)OC2=O)c1OC(C)=O` came out at 80 to 100%

Just so you know, measured pest or weed control at 100 ppm for `COc1ccnc(C(=O)N[C@H]2COC[C@H](OCC(C)C)[C@@H](OCC(C)C)COC2=O)c1O` came out at 80 to 100%
